test: Cmax in intratracheally dosed rat at 1 mg/kg; format: ADME, organism-based; parameters: dose 1 mg/kg, route endotracheal; conditions: in vivo, inhaled or intranasal
Recorded Cmax by entry
Just the number in nM, nothing appended.

Sample answers from the record:
CCNC(=O)[C@H]1O[C@@H](n2cnc3c(N)nc(NCCc4ccc(CCC(=O)O)cc4)nc32)[C@H](O)[C@@H]1O [CGS-21680] :: 271
CCNC(=O)[C@H]1O[C@@H](n2cnc3c(NCC(c4ccccc4)c4ccccc4)nc(CNC(=O)NCCN(C(C)C)C4CCCC4)nc32)[C@H](O)[C@@H]1O :: 1.8

Sample `O=C(NCCN1CCCCC1)c1nc(NCC(c2ccccc2)c2ccccc2)c2ncn([C@@H]3O[C@H](CO)[C@@H](O)[C@H]3O)c2n1` ; Cmax observed: 20

====

experiment: Membrane permeability by PAMPA assay; type: ADME; conditions: read-out: permeability
Listed below: Papp values for each entry.

Worked set:
O=C(NCCN1CCCCC1)c1nc(NCC(c2ccccc2)c2ccccc2)c2ncn([C@@H]3O[C@H](CO)[C@@H](O)[C@H]3O)c2n1 :: 0.2 ×10⁻⁶ cm/s
CCNC(=O)[C@H]1O[C@@H](n2cnc3c(NCC(c4ccccc4)c4ccccc4)nc(CNC(=O)NCCN(C(C)C)C4CCCC4)nc32)[C@H](O)[C@@H]1O :: < 0.7 ×10⁻⁶ cm/s

// next item, Papp requested
Memo: `CCNC(=O)[C@H]1O[C@@H](n2cnc3c(N)nc(NCCc4ccc(CCC(=O)O)cc4)nc32)[C@H](O)[C@@H]1O` , reported Papp: < 0.2 ×10⁻⁶ cm/s

====

Recorded microsomal CLint for the following molecules
test: Intrinsic clearance in human liver microsomes; format: ADME, Microsome
Numbers only here, please. The scale is µL/min/mg.

CCNC(=O)[C@H]1O[C@@H](n2cnc3c(NCC(c4ccccc4)c4ccccc4)nc(CNC(=O)NCCN(C(C)C)C4CCCC4)nc32)[C@H](O)[C@@H]1O :: 135

Now examine the next entry.
`O=C(NCCN1CCCCC1)c1nc(NCC(c2ccccc2)c2ccccc2)c2ncn([C@@H]3O[C@H](CO)[C@@H](O)[C@H]3O)c2n1` has a reported microsomal CLint of 62.6

====

IC50 listing for selected compounds.
target: Adenosine receptor A2a (Homo sapiens); assay: Agonist activity at adenosine A2A receptor
# value in nM; strip the unit string

A selection of reference data follows.
CCNC(=O)[C@H]1O[C@@H](n2cnc3c(NCC(c4ccccc4)c4ccccc4)nc(NCCC4CCCCC4)nc32)[C@H](O)[C@@H]1O :: 1000
CCNC(=O)[C@H]1O[C@@H](n2cnc3c(NCC(c4ccccc4)c4ccccc4)nc(CNC(=O)NCCN(C(C)C)C(C)C)nc32)[C@H](O)[C@@H]1O :: 11
CCNC(=O)[C@H]1O[C@@H](n2cnc3c(NCC(c4ccccc4)c4ccccc4)nc(C(=O)NCCN4CCCCC4)nc32)[C@H](O)[C@@H]1O :: 9
COC[C@H]1O[C@@H](n2cnc3c(NCC(c4ccccc4)c4ccccc4)nc(NCCN4CCCCC4)nc32)[C@H](O)[C@@H]1O :: 60

Form field IC50, entry `COC[C@H]1O[C@@H](n2cnc3c(NCC(c4ccccc4)c4ccccc4)nc(NCCC4CCCCC4)nc32)[C@H](O)[C@@H]1O` : 1010

Looking up `O=C(NCCN1CCCCC1)c1nc(NCC(c2ccccc2)c2ccccc2)c2ncn([C@@H]3O[C@H](CO)[C@@H](O)[C@H]3O)c2n1` , I see its IC50 listed as 65

Sure, the documented IC50 for `COC[C@H]1O[C@@H](n2cnc3c(NCC(c4ccccc4)c4ccccc4)nc(CNC4CCCCC4)nc32)[C@H](O)[C@@H]1O` is 100

====

assay: Distribution coefficient, log D at pH 7.4; assay type: physicochemical; conditions: octanol/water
property label: logD
// return a plain number; no unit text

O=C(NCCN1CCCCC1)c1nc(NCC(c2ccccc2)c2ccccc2)c2ncn([C@@H]3O[C@H](CO)[C@@H](O)[C@H]3O)c2n1 :: 2.1

Notebook: `CCNC(=O)[C@H]1O[C@@H](n2cnc3c(NCC(c4ccccc4)c4ccccc4)nc(CNC(=O)NCCN(C(C)C)C4CCCC4)nc32)[C@H](O)[C@@H]1O` , logD read as 2

Kindly note the recorded logD for `CCNC(=O)[C@H]1O[C@@H](n2cnc3c(N)nc(NCCc4ccc(CCC(=O)O)cc4)nc32)[C@H](O)[C@@H]1O` , which is -0.15

====

target: Adenosine receptor A2a (Homo sapiens, UniProt P29274); assay: Agonist activity at adenosine A2A receptor
Sequence (P29274 whole entry): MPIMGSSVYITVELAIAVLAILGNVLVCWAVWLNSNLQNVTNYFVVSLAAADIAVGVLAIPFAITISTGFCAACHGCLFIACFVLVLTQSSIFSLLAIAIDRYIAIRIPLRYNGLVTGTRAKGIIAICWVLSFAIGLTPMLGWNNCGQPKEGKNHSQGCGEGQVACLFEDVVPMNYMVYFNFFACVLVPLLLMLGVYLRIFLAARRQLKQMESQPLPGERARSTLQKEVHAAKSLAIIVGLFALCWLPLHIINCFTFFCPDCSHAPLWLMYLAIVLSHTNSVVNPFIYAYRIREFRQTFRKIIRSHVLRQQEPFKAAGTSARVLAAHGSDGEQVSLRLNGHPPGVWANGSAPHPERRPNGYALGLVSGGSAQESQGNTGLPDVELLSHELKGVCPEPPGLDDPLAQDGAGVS
Catalogue of compounds with associated pIC50
Recall that pIC50 is obtained by taking minus log10 of the concentration measured in molar.

Solved entries:
CCNC(=O)[C@H]1O[C@@H](n2cnc3c(NCC(c4ccccc4)c4ccccc4)nc(CNC(=O)NCCN(C4CCCCC4)C(C)(C)C)nc32)[C@H](O)[C@@H]1O :: 7.48
COC[C@H]1O[C@@H](n2cnc3c(NCC(c4ccccc4)c4ccccc4)nc(CCNC4CCCCC4)nc32)[C@H](O)[C@@H]1O :: 7.55
CCNC(=O)[C@H]1O[C@@H](n2cnc3c(NCC(c4ccccc4)c4ccccc4)nc(CNC(=O)NCCN4CCCCC4)nc32)[C@H](O)[C@@H]1O :: 7.77

// switching to the query compound
get_value(item= `CCNC(=O)[C@H]1O[C@@H](n2cnc3c(NCC(c4ccccc4)c4ccccc4)nc(CNC(=O)NCCN(C(C)C)C4CCCC4)nc32)[C@H](O)[C@@H]1O` , readout=pIC50) returns 8.22
